biological target: purified HLA-A*02:01 MHC molecule (human | ); assay: radioligand binding
endpoint: IC50

Item under review: GLITLSYHL [GLITLSYHL, HLA-I peptide from S.iORF1/2] . Reported IC50?
< 0.5 nM

Name the recorded IC50 for MLLGSMLYM [MLLGSMLYM, HLA-I peptide from S.iORF1/2] .
< 0.5 nM
